- test_target: New Delhi metallo β lactamase-1 (NDM-1 bla) (Klebsiella pneumoniae, UniProt C7C422)
- Construct: gene blaNDM-1
- Sequence (C7C422 29-270 limits assumed): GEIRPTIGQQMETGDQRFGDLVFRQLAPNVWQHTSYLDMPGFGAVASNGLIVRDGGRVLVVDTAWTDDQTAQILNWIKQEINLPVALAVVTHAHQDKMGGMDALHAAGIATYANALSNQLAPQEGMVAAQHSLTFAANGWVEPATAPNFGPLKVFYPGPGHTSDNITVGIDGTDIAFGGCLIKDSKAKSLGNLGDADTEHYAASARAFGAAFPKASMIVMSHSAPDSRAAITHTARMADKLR
- measurement_description: in vitro β-lactamase inhibition assay (IC50, Figure S29; also cites ref […])
- Format: biochemical
property_label: IC50

INSERT INTO assay_data (compound, reported_value) VALUES
  ('O=c1c2ccccc2[se]n1-c1ccccc1 [ebselen]', '508 nM');
